# credit: patent US11453679B2

assay: Compound exposure in wild-type mice (cerebellum and blood, mass spectrometry)
study-conditions: male, C57BL/6J, mouse, brain (cerebellum) and whole blood, ip
If the reported Kp at 1 h equals or exceeds 2, assign met. If not, assign not met.

- compound: "CCc1c(F)cc(F)cc1[C@H]1C(C(=O)OC)=C(C)NC2=C1C(=O)OC2 (single isomer, unassigned)"
  assigned-label: "not met"

Does C=C(c1c(F)cc(F)cc1[C@H]1C(C(=O)OC)=C(C)NC2=C1C(=O)OC2)C(F)(F)F (single isomer, unassigned) have a reported Kp at 1 h of at least 2?
met

Same thing, different compound: COC(=O)C1=C(C)NC2=C(C(=O)OC2)[C@H]1c1cc(F)cc(F)c1[C@@H](C)F (single isomer, unassigned)
not met

What about this compound? COC(=O)C1=C(C)NC2=C(C(=O)OC2)[C@H]1c1cccc(F)c1CC(F)(F)F (single isomer, unassigned)
met

Also COC(=O)C1=C(C)NC2=C(C(=O)OC2)[C@H]1c1cc(F)cc(F)c1C1CC1 (single isomer, unassigned) , if possible.
not met

How about this compound: CCc1c(F)cccc1[C@H]1C(C(=O)OC)=C(C)NC2=C1C(=O)OC2 (single isomer, unassigned)
not met
